Record form. Attribute: log10(IC50). Fill in for each entry.
# Tested on: COLO 205
# assay-notes: Antiproliferative activity against human COLO205 cells after 48 hrs by alamar blue assay
# Assay type: functional, cell-based
# condition-summary: COLO 205, 48 h
Reminder: these figures are log10 of reported IC50, in nM before transformation.

Sample answers from the record:
# molecule, assay-endpoint, measurement
measured = [
    ("COc1ccc(C(=O)N2c3ccccc3Oc3ccc(Cl)cc32)cc1O", "log10(IC50)", 3.43),
    ("COc1ccc(C(=O)N2c3ccccc3Oc3ccccc32)cc1", "log10(IC50)", 2.38),
    ("COc1ccc(C(=O)N2c3ccccc3Oc3ccc(Cl)cc32)cc1", "log10(IC50)", 2.63),
    ("COc1cc2c(c(OC)c1OC)-c1ccc(OC)c(=O)cc1[C@@H](NC(C)=O)CC2 [COLCHICINE]", "log10(IC50)", 1.32),
    ("CC(=O)O[C@H]1C(=O)[C@@]2(C)[C@H]([C@H](OC(=O)c3ccccc3)[C@]3(O)C[C@H](OC(=O)[C@H](O)[C@@H](NC(=O)c4ccccc4)c4ccccc4)C(C)=C1C3(C)C)[C@]1(OC(C)=O)CO[C@@H]1C[C@@H]2O [PACLITAXEL]", "log10(IC50)", 0.70),
]

For each entry beneath this line, provide reported log10(IC50).
1. COC(=O)Nc1nc2cc(C(=O)c3cccs3)ccc2[nH]1 [NOCODAZOLE]
2. COc1ccc(C(=O)N2c3ccccc3Oc3cc(C#N)ccc32)cc1

(A)
1.94
0.78

* * *

# assay-notes: cells
# condition-summary: Homo sapiens, 451Lu, 48 h
# Description: Antiproliferative activity against human 451LU cells after 48 hrs by alamar blue assay
assay-endpoint: pIC50
Numbers only, as −log10 of the molar value.

Sample answers from the record:
# input-smiles, pIC50
data = [
    ("COc1ccc(C(=O)N2c3ccccc3Oc3ccc(Cl)cc32)cc1O", 7.57),
    ("COc1ccc(C(=O)N2c3ccccc3Oc3ccc(Cl)cc32)cc1", 7.05),
    ("COC(=O)Nc1nc2cc(C(=O)c3cccs3)ccc2[nH]1", 7.14),
    ("COc1ccc(C(=O)N2c3ccccc3Oc3ccccc32)cc1", 7.22),
    ("COc1ccc(C(=O)N2c3ccccc3Oc3cc(C#N)ccc32)cc1", 8.70),
]

For each entry beneath this line, provide reported pIC50.
1. COc1cc2c(c(OC)c1OC)-c1ccc(OC)c(=O)cc1[C@@H](NC(C)=O)CC2
2. COc1ccc(C(=O)N2c3ccccc3Oc3cc(C#N)ccc32)cc1O

(A)
[7.77, 8.22]

* * *

Record form. Attribute: IC50. Fill in for each entry.
# target: Tubulin (Sus scrofa, UniProt P02554+P02550)
# assay-notes: Inhibition of pig tubulin polymerization determined after 45 mins at 37 degC by turbidimetric analysis
# Type: protein assay
One number for each entry, in nM.

Sample answers from the record:
# input-smiles, uom, IC50
data = [
    ("COc1ccc(C(=O)N2c3ccccc3Sc3ccccc32)cc1", "nM", 2230),
    ("COc1cccc(C(=O)N2c3ccccc3Oc3ccc(Cl)cc32)c1", "nM", 650),
]

Next molecule, please.
(Q) Give the value of IC50 reported for the following: "COc1ccc(C(=O)N2c3ccccc3S(=O)(=O)c3ccccc32)cc1O"
(A) 3000
